tested on: MS2 coat protein; test: apparent KD of MS2 coat protein; designed switch direction (-1 OFF switch, 1 ON switch): 1; higher = weaker reporter binding; settings: Eterna round: R95; input ligand: microRNA oligo, concentration not stated
Below, each of the sequences is paired with its reported apparent KD of MS2 coat protein value.
Please answer in the form of a number followed by its unit of measurement.

Consider the following illustrative entries.
seq	apparent KD of MS2 coat protein
UCUUGGUUUUUGCUCGUUUUUUGUGUUGAACAUGAGGAUCACCCAUGUAUUGUACGGUCCAGUUUAGUGGUAAUCCG [JMF 69] (puzzle: Sensor for hsa-mir-208a)	20.6 nM
UUUAGUGGCGGGCAGGAUAUGUAUUAAAAUACAUGAGGAUCACCCAUGUGCGGGUAUAACACCCGACAGAAGGGCCAAUCGCUAC [Laonerce - 7] (puzzle: Same State 2)	275 nM
GCAGAACAUGAGGAUCACCCAUGUCUCUAAUAUCGAGGAUAUGGGCAGGGUAUAUCCCAACCAGAAGGCGAACUGC [SS1 Teenbexe 14] (puzzle: Same State 1)	140 nM

Recorded apparent KD of MS2 coat protein for UUAUAACAUGAGGAUCACCCAUGUCAACAAAGUCGAGGAUAUGGGCAAUUAUUAUUAGAACCAGAAGGCGAAAAUU [Mat - Same State 1 - Mod of UCT - D29] (puzzle: Same State 1) , please?
227 nM

Okay, and AGUCCAGCCUGAGCUGGACAAAAGCAUGUACAUGAGGAUCACCCAUGUCAUGUGCAAGCUUUUUGCUCGUCUUAAAA [Zipper 46 - 6] (puzzle: Sensor for hsa-mir-208a) ?
11.6 nM

Okay, and CGUAGGUGGCUGGAGGAUAUUCGAGUGGUAACAUGAGGAUCACCCAUGUGUCGCGCGGUACAUGAGGAGAAGGCUGGCGGCCUGC (puzzle: Same State 2) ?
69.4 nM

Okay, and UGGAUCUAGGCUUGCCUGGGUCCAUGUUGACAUGAGGAUCACCCAUGUGUAUUUUAUAAGCUUUUUGUUUGUCAACU [JL A Humble Attempt mod 8] (puzzle: Sensor for hsa-mir-208a) ?
12.8 nM

Okay, and AUUAAACAUGAGGAUCACCCAUGUCAACAAAGUCGAGGAUAUGGGCAAAUAAAAUAAGAUCCAGAAGGCGAAUAAU [salish99_ss1_r3_067] (puzzle: Same State 1) ?
16.8 nM

src = the supplement of paper PMC9170038
